# measurementTarget: ACAT of HepG2 cells (Homo sapiens)
# Construct: endogenous in cells
# Sequence (P35610 whole entry): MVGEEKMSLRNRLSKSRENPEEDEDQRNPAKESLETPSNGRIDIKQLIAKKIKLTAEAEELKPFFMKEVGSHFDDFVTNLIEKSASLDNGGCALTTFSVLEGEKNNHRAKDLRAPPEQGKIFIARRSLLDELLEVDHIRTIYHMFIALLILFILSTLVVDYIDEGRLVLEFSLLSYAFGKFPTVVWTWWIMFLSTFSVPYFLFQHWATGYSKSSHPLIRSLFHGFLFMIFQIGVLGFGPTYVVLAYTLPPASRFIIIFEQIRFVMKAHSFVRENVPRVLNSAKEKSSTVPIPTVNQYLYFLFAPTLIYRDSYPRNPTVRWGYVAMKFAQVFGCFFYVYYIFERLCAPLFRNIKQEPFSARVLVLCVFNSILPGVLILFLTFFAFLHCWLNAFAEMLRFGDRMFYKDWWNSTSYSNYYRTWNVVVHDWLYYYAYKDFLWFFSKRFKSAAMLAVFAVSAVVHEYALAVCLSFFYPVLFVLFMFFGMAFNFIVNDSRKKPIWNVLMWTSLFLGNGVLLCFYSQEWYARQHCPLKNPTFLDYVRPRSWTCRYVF
# protocolSummary: Inhibitory activity against ACAT of HepG2 cells derived from human liver cancer cells
# appliedConditions: radio-labelled oleic acid/BSA complex, cholesterol oleate produced
measuredProperty: IC50 (nM)

INSERT INTO assay_data (compound, measuredproperty, valuereported) VALUES
  ('CCCCCN(Cc1ccc(-n2ccnc2)cc1)C(=O)Nc1c(C)cccc1OCCCN1CCN(c2ccccc2)CC1 [Example 38]', 'IC50', 282),
  ('CCCCCN(Cc1cc(-n2cccn2)ccc1OC)C(=O)Nc1c(C)cccc1OCCCN1CCN(c2ccccc2)CC1 [Example 47]', 'IC50', 81),
  ('CCCCCN(Cc1cccc(-n2ccnc2)c1)C(=O)Nc1c(C)cccc1OCCCN1CCN(c2ccccc2)CC1 [Example 37]', 'IC50', 220);

a = CCCCCN(Cc1cc(-n2ccnc2)ccc1OCc1ccccn1)C(=O)Nc1c(C)cccc1OCCCN1CCN(c2ccccc2)CC1 [Example 30]
b = CCCCCCCN(Cc1cccc(OC)c1OCc1ccccc1)C(=O)Nc1c(OCCCN2CCN(c3ccccc3)CC2)ccc2c1CCCC2 [Example 8]
c = CCCCCN(Cc1cccc(OC)c1OCc1ccccn1)C(=O)Nc1c(C)cccc1OCCCN1CCN(c2ccccc2)CC1 [Example 26]
Provide the items ranked by increasing IC50. Answer format: list of labels, ordered as asked.
a, b, c
(a: 234 nM, b: 414 nM, c: 743 nM)

###

# measurementTarget: ACAT of HepG2 cells (Homo sapiens)
# Construct: endogenous in cells
# protocolSummary: Inhibitory activity against ACAT of HepG2 cells derived from human liver cancer cells
# appliedConditions: radio-labelled oleic acid/BSA complex, cholesterol oleate produced
measuredProperty: IC50 (nM)

INSERT INTO results (compound, measuredproperty, valuereported) VALUES
  ('CCCCCN(Cc1cccc(OC)c1OCc1ccccn1)C(=O)Nc1c(OCCCN2CCN(c3ccccc3)CC2)ccc2c1CCCC2', 'IC50', 732),
  ('CCCCCN(Cc1cc(-n2ccnc2)ccc1OC)C(=O)Nc1c(C)cccc1OCCCN1CCN(c2ccccc2)CC1.Cl.Cl [Example 3, dihydrochloride]', 'IC50', 108),
  ('CCCCCN(Cc1ccc(-n2ccnc2)cc1)C(=O)Nc1c(C)cccc1OCCCN1CCN(c2ccccc2)CC1 [Example 11]', 'IC50', 189);

I = CCCCCN(Cc1ccc(OC)cc1OCc1ccccn1)C(=O)Nc1c(C)cccc1OCCCN1CCN(c2ccccc2)CC1
II = CCCN(Cc1ccccc1OCc1ccccn1)C(=O)Nc1c(OCCCN2CCN(c3ccccc3)CC2)ccc2c1CCCC2
Of the two listed items, I and II , which carries the larger IC50 figure? Mark your answer with the label of the selected entry.
I
(I: 320 nM, II: 187 nM)

###

# measurementTarget: ACAT of HepG2 cells (Homo sapiens)
# Construct: endogenous in cells; host or cells: HepG2
# protocolSummary: Inhibitory activity against ACAT of HepG2 cells derived from human liver cancer cells
# Format: cell-based
# appliedConditions: radio-labelled oleic acid/BSA complex, cholesterol oleate produced
pIC50: −log10 of the molar value.
measuredProperty: pIC50

INSERT INTO assay_data (smiles, measurementtarget, valuereported) VALUES
  ('CCCCCN(Cc1ccccc1-n1ccnc1)C(=O)Nc1c(C)cccc1OCCCN1CCN(c2ccccc2)CC1', 'ACAT of HepG2 cells (Homo sapiens)', 6.29);

a = COc1cccc(CN(CCCc2ccccc2)C(=O)Nc2c(OCCCN3CCN(c4ccccc4)CC3)ccc3c2CCCC3)c1OCc1ccccc1
b = CCCN(Cc1ccccc1OCc1ccncc1)C(=O)Nc1c(OCCCN2CCN(c3ccccc3)CC2)ccc2c1CCCC2
Of a and b , which one carries the higher reported pIC50? Refer to your chosen item by its label in the answer.
a

1 = CCCCCN(Cc1ccc(-n2ccnc2)cc1)C(=O)Nc1c(OCCCN2CCN(c3ccccc3)CC2)ccc2c1CCCC2
2 = CCCCCN(CCc1cc(-n2ccnc2)ccc1OC)C(=O)Nc1c(C)cccc1OCCCN1CCN(c2ccccc2)CC1
Which record would sort first by descending pIC50, 1 or 2 ? Kindly give the label for the entry you pick.
2

A = CCCCCN(Cc1cc(-n2ccnc2)cc2c1OCO2)C(=O)Nc1c(C)cccc1OCCCN1CCN(c2ccccc2)CC1
B = CCCCCN(Cc1ccc(OCc2ccccn2)cc1)C(=O)Nc1c(C)cccc1OCCCN1CCN(c2ccccc2)CC1
C = CCCCCN(Cc1cc(-n2cncn2)ccc1OC)C(=O)Nc1c(C)cccc1OCCCN1CCN(c2ccccc2)CC1
D = CCCN(Cc1cc(-n2ccnc2)ccc1OC)C(=O)Nc1c(C)cccc1OCCCN1CCN(c2ccccc2)CC1
Hi! Can you put these in order of pIC50, lowest number first? Give me the labels in the order the question wants.
A, D, B, C
(A: 6.35, D: 6.81, B: 7.05, C: 7.35)

###

# measurementTarget: ACAT of HepG2 cells (Homo sapiens)
# Construct: endogenous in cells
# protocolSummary: Inhibitory activity against ACAT of HepG2 cells derived from human liver cancer cells
# appliedConditions: radio-labelled oleic acid/BSA complex, cholesterol oleate produced
measuredProperty: IC50 (nM)

Record excerpt, results attached:
INSERT INTO measurements (smiles, measurementtarget, unittext, valuereported) VALUES
  ('CCCCCN(Cc1ccc(OC)c(-n2ccnc2)c1)C(=O)Nc1c(C)cccc1OCCCN1CCN(c2ccccc2)CC1', 'ACAT of HepG2 cells (Homo sapiens)', 'nM', 584),
  ('CCCCCN(Cc1ccc(-n2ccnc2)cc1)C(=O)Nc1c(C)cccc1OCCCN1CCN(c2ccccn2)CC1', 'ACAT of HepG2 cells (Homo sapiens)', 'nM', 595);

I = CCCCCN(Cc1ccccc1OCc1ccccn1)C(=O)Nc1c(C)cccc1OCCCN1CCN(c2ccccc2)CC1
II = CCCCCN(Cc1ccc(OCc2ccccn2)c(OC)c1)C(=O)Nc1c(C)cccc1OCCCN1CCN(c2ccccc2)CC1
III = CCCCCN(CCc1ccc(-n2ccnc2)c(OC)c1)C(=O)Nc1c(C)cccc1OCCCN1CCN(c2ccccc2)CC1
Could you please sort these 3 entries by IC50 from high to low? Output the labels ranked as instructed.
I, II, III
